Assay: amyloid nucleation score (Sup35N fusion, yeast selection) (log enrichment); library NNK1; higher = more nucleation; inactive = no reads after selection;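 further: zero at mode of non-aggregating sequences after 7 days selection at 30°C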
// label = Yes if amyloid nucleation score is not less than -0.02, otherwise No

**Query** Hi team, for "HKCDSVKVGGSCNKTAYSRC" , is the recorded amyloid nucleation score at or above -0.02?
**Result** Yes

**Query** Hi team, for "RVFRASNDR" , is the recorded amyloid nucleation score at or above -0.02?
**Result** Yes

**Query** Hi team, for "FLSYYTCILFPGDMHGSYLS" , is the recorded amyloid nucleation score at or above -0.02?
**Result** Yes

**Query** Hi team, for "PCWLQMSCR" , is the recorded amyloid nucleation score at or above -0.02?
**Result** No

**Query** Hi team, for "RMPRCKVFSVFSLLHAQY" , is the recorded amyloid nucleation score at or above -0.02?
**Result** Yes

**Query** Hi team, for "TGLCDRLRSLEGAAAVR" , is the recorded amyloid nucleation score at or above -0.02?
**Result** Yes

**Query** Hi team, for "TSTLVMTNKMVLDSVE" , is the recorded amyloid nucleation score at or above -0.02?
**Result** No

**Query** Hi team, for "SCNFLYGRRLFL" , is the recorded amyloid nucleation score at or above -0.02?
**Result** No

**Query** Hi team, for "ALKGSRHDL" , is the recorded amyloid nucleation score at or above -0.02?
**Result** No

**Query** Hi team, for "SCVYNWFIKVLPKVSTMSGD" , is the recorded amyloid nucleation score at or above -0.02?
**Result** Yes

**Query** Hi team, for "YIYNWRYN" , is the recorded amyloid nucleation score at or above -0.02?
**Result** Yes

**Query** Hi team, for "FGFFWV" , is the recorded amyloid nucleation score at or above -0.02?
**Result** Yes

**Query** Hi team, for "RFVWKDDTHQAIGTFLMSQG" , is the recorded amyloid nucleation score at or above -0.02?
**Result** Yes

**Query** Hi team, for "CYAFLDWAYVSEG" , is the recorded amyloid nucleation score at or above -0.02?
**Result** Yes

**Query** Hi team, for "LLAIHAYREVLTGPGCGYLT" , is the recorded amyloid nucleation score at or above -0.02?
**Result** Yes

**Query** Hi team, for "WHALVNRGHAWSRIGQDAGC" , is the recorded amyloid nucleation score at or above -0.02?
**Result** Yes

**Query** Hi team, for "VYWMFV" , is the recorded amyloid nucleation score at or above -0.02?
**Result** Yes

**Query** Hi team, for "PGYSVPFSCGDQVPQQLPIR" , is the recorded amyloid nucleation score at or above -0.02?
**Result** No

**Query** Hi team, for "SGKNRYIVSSCSWLWAREDL" , is the recorded amyloid nucleation score at or above -0.02?
**Result** Yes

**Query** Hi team, for "YDLRNICTSTLMSHVNRFYV" , is the recorded amyloid nucleation score at or above -0.02?
**Result** No

**Query** Hi team, for "CSDFITLSMFV" , is the recorded amyloid nucleation score at or above -0.02?
**Result** Yes

**Query** Hi team, for "ILYCLNLVIHLCQRYSLILR" , is the recorded amyloid nucleation score at or above -0.02?
**Result** Yes

**Query** Hi team, for "DRAGERMGIR" , is the recorded amyloid nucleation score at or above -0.02?
**Result** Yes

**Query** Hi team, for "ACELGFLPKHRHRGLVFVEG" , is the recorded amyloid nucleation score at or above -0.02?
**Result** No

**Query** Hi team, for "NVLVGFI" , is the recorded amyloid nucleation score at or above -0.02?
**Result** No

**Query** Hi team, for "SFFRFVQNVSRSAGVSDSAM" , is the recorded amyloid nucleation score at or above -0.02?
**Result** No

**Query** Hi team, for "VHLCLCRCVLCAENGLWPFS" , is the recorded amyloid nucleation score at or above -0.02?
**Result** No

**Query** Hi team, for "MVVVIIYL" , is the recorded amyloid nucleation score at or above -0.02?
**Result** Yes

**Query** Hi team, for "FLSRCGWAYVMV" , is the recorded amyloid nucleation score at or above -0.02?
**Result** No

**Query** Hi team, for "LRLTALGSSRPIKFEGNVGY" , is the recorded amyloid nucleation score at or above -0.02?
**Result** No

**Query** Hi team, for "SHEGIIMLMLTHQFSW" , is the recorded amyloid nucleation score at or above -0.02?
**Result** Yes

**Query** Hi team, for "QVFGFYTMEKVYHVGGIASV" , is the recorded amyloid nucleation score at or above -0.02?
**Result** No

**Query** Hi team, for "QNDLERWAEGQASKMLG" , is the recorded amyloid nucleation score at or above -0.02?
**Result** Yes

**Query** Hi team, for "NDNSVTILVCARVSTNGIFD" , is the recorded amyloid nucleation score at or above -0.02?
**Result** Yes

**Query** Hi team, for "SVASGVMFRAYCFWWAARKV" , is the recorded amyloid nucleation score at or above -0.02?
**Result** Yes

**Query** Hi team, for "NPNMVSRPCRVGRRPFDVGL" , is the recorded amyloid nucleation score at or above -0.02?
**Result** No

**Query** Hi team, for "VFCVSRTINGYN" , is the recorded amyloid nucleation score at or above -0.02?
**Result** No

**Query** Hi team, for "VYASSCMLGTWLSDSTSGCS" , is the recorded amyloid nucleation score at or above -0.02?
**Result** Yes

**Query** Hi team, for "QRMACWYLDKLESLSKLACM" , is the recorded amyloid nucleation score at or above -0.02?
**Result** Yes

**Query** Hi team, for "WCVLTSMEAYWFGLSRN" , is the recorded amyloid nucleation score at or above -0.02?
**Result** Yes

**Query** Hi team, for "VRPNGVYSFRWTYGFPIQRA" , is the recorded amyloid nucleation score at or above -0.02?
**Result** Yes

**Query** Hi team, for "FGHKKPVGLTGLNGFSGTGV" , is the recorded amyloid nucleation score at or above -0.02?
**Result** Yes

**Query** Hi team, for "SDSGCEGESCQNRLISVGLL" , is the recorded amyloid nucleation score at or above -0.02?
**Result** No

**Query** Hi team, for "FSNAIKQVFQGYLWTNPW" , is the recorded amyloid nucleation score at or above -0.02?
**Result** No

**Query** Hi team, for "CHRRMMNEWSGLKNVLFKKG" , is the recorded amyloid nucleation score at or above -0.02?
**Result** Yes

**Query** Hi team, for "TLVKVRSELYSGRDAYELVS" , is the recorded amyloid nucleation score at or above -0.02?
**Result** Yes

**Query** Hi team, for "GLMNSRYMYVVNMS" , is the recorded amyloid nucleation score at or above -0.02?
**Result** Yes

**Query** Hi team, for "SWCSCQV" , is the recorded amyloid nucleation score at or above -0.02?
**Result** Yes

**Query** Hi team, for "QVRLVNWVCRM" , is the recorded amyloid nucleation score at or above -0.02?
**Result** Yes

**Query** Hi team, for "TIFAWAKHGQSNTVSRLGGF" , is the recorded amyloid nucleation score at or above -0.02?
**Result** Yes

**Query** Hi team, for "GATTMFEVGICNENRKVYVE" , is the recorded amyloid nucleation score at or above -0.02?
**Result** No

**Query** Hi team, for "KRHVSGKVQMGWGVRRRPV" , is the recorded amyloid nucleation score at or above -0.02?
**Result** Yes

**Query** Hi team, for "SDRDVVRVIYNSVGGTVWFG" , is the recorded amyloid nucleation score at or above -0.02?
**Result** Yes

**Query** Hi team, for "AMFNIW" , is the recorded amyloid nucleation score at or above -0.02?
**Result** No

**Query** Hi team, for "WSATSATMLQSLPVQEEHVD" , is the recorded amyloid nucleation score at or above -0.02?
**Result** No

**Query** Hi team, for "TVNARVGVSIFYYWV" , is the recorded amyloid nucleation score at or above -0.02?
**Result** Yes

**Query** Hi team, for "RDLDSSILNNFFDICTFWNK" , is the recorded amyloid nucleation score at or above -0.02?
**Result** No

**Query** Hi team, for "MSQAALLVLGNRFGNNDIVG" , is the recorded amyloid nucleation score at or above -0.02?
**Result** No

**Query** Hi team, for "SLYELPWDNYP" , is the recorded amyloid nucleation score at or above -0.02?
**Result** No

**Query** Hi team, for "RSFDLRSSTTLERLFFHMCA" , is the recorded amyloid nucleation score at or above -0.02?
**Result** No

**Query** Hi team, for "YLLTHQRKTSLQE" , is the recorded amyloid nucleation score at or above -0.02?
**Result** Yes

**Query** Hi team, for "VNVCESTPPDVESRGVCDAG" , is the recorded amyloid nucleation score at or above -0.02?
**Result** Yes

**Query** Hi team, for "SSGVSNQSIQDIDMRLVYFA" , is the recorded amyloid nucleation score at or above -0.02?
**Result** Yes

**Query** Hi team, for "FKMSWSTPARYNNGLTRLIF" , is the recorded amyloid nucleation score at or above -0.02?
**Result** No

**Query** Hi team, for "NRCYMVYKFTV" , is the recorded amyloid nucleation score at or above -0.02?
**Result** Yes

**Query** Hi team, for "MCREYVFDNSPVT" , is the recorded amyloid nucleation score at or above -0.02?
**Result** No

**Query** Hi team, for "ILMMPLIESCMEVLGHPS" , is the recorded amyloid nucleation score at or above -0.02?
**Result** Yes

**Query** Hi team, for "CERLKT" , is the recorded amyloid nucleation score at or above -0.02?
**Result** Yes

**Query** Hi team, for "KLSVGLRYCRPATRTSAHVM" , is the recorded amyloid nucleation score at or above -0.02?
**Result** Yes
